target: S1P1 receptor (Homo sapiens, UniProt P21453); experiment: 35S-GTPγS binding, membranes from CHO cells expressing S1P1; details: CHO cell membranes expressing S1P1
Sequence (P21453 whole entry): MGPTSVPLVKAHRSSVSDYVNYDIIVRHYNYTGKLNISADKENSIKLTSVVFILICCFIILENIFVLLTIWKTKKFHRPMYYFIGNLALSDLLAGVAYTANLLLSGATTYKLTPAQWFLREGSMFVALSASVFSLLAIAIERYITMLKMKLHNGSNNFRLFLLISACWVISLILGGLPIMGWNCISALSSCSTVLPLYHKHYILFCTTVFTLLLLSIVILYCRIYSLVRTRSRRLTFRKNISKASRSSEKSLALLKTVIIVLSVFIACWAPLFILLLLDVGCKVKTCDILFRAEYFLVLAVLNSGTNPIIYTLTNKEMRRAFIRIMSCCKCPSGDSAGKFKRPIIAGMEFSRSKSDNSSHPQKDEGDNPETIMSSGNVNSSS
Structures can show the parent of a compound that is named as a salt.
One threshold, 0.2 µM, splits the recorded EC50 values: lower ones are Satisfied, equal or higher ones are Not satisfied.

>  <compound>
OCCc1ccc(-c2noc(-c3nnn(-c4ccccc4F)c3-c3ccncc3)n2)cc1

>  <classLabel>
Satisfied

$$$$
>  <compound>
O=C(O)c1ccc(-c2noc(-c3nnn(-c4ccccc4F)c3-c3ccccc3)n2)c(F)c1

>  <classLabel>
Not satisfied

$$$$
>  <compound>
CN(CC(=O)O)Cc1ccc(-c2noc(-c3nnn(-c4ccccc4F)c3-c3ccncc3)n2)cc1

>  <classLabel>
Satisfied

$$$$
>  <compound>
O=C1Cc2cc(-c3noc(-c4nnn(-c5ccccc5F)c4-c4ccncc4)n3)ccc2N1

>  <classLabel>
Satisfied

$$$$
>  <compound>
OC1CCN(Cc2cccc(-c3noc(-c4nnn(-c5ccccc5F)c4-c4ccncc4)n3)c2)C1 (centres unmarked)

>  <classLabel>
Not satisfied

$$$$
>  <compound>
COCCc1c(-c2nc(-c3cc(F)ccc3F)no2)nnn1-c1ccccc1F

>  <classLabel>
Satisfied

$$$$
>  <compound>
Fc1ccccc1-n1nnc(-c2nc(-c3ccccc3)no2)c1-c1ccccc1

>  <classLabel>
Satisfied

$$$$
>  <compound>
Fc1ccccc1-n1nnc(-c2nc(-c3cccc(Br)c3)no2)c1-c1ccncc1

>  <classLabel>
Satisfied

$$$$
>  <compound>
Fc1ccccc1-n1nnc(-c2nc(-c3cccc(Cn4cncn4)c3)no2)c1-c1ccccn1

>  <classLabel>
Not satisfied

$$$$
>  <compound>
Fc1ccccc1-n1nnc(-c2nc(-c3ccncc3)no2)c1C1CCCO1 (centres unmarked)

>  <classLabel>
Not satisfied

$$$$
>  <compound>
Nc1c(Cl)cc(-c2noc(-c3nnn(-c4ccccc4F)c3-c3ccncc3)n2)cc1Cl

>  <classLabel>
Satisfied

$$$$
>  <compound>
NC(=O)c1ccc(-c2noc(-c3nnn(-c4ccccc4F)c3-c3ccncc3)n2)cc1

>  <classLabel>
Satisfied

$$$$
>  <compound>
CNCc1cccc(-c2noc(-c3nnn(-c4ccccc4F)c3-c3ccncc3)n2)c1 [Example 133, formate]

>  <classLabel>
Not satisfied

$$$$
>  <compound>
COc1ccc(-c2noc(-c3nnn(-c4ccccc4F)c3-c3ccncc3)n2)cn1

>  <classLabel>
Not satisfied

$$$$
>  <compound>
O=C(O)C1CN(Cc2ccc(-c3noc(-c4nnn(-c5ccccc5F)c4-c4ccncc4)n3)cc2)C1

>  <classLabel>
Satisfied

$$$$
>  <compound>
Fc1ccccc1-c1noc(-c2nnn(-c3ccccc3F)c2C2CC2)n1

>  <classLabel>
Not satisfied

$$$$
>  <compound>
Fc1ccccc1-n1nnc(-c2nc(-c3ccccc3)no2)c1-c1ccncc1

>  <classLabel>
Satisfied

$$$$

---

Target: S1P1 receptor (Homo sapiens, UniProt P21453)
Experiment: 35S-GTPγS binding, membranes from CHO cells expressing S1P1
Details: CHO cell membranes expressing S1P1
Method: Receptor binding assay: Membranes were prepared from CHO cells expressing S1P1 or S1P3 for use in ligand and 35S-GTPTS binding studies. […] Binding was performed for 60 min at room temperature on a shaker and bound radioactivity was measured on a PerkinElmer 1450 MicroBeta counter. Specific binding was calculated by subtracting remaining radioactivity in the presence of 1000-fold excess of unlabeled S1P. Binding data were analyzed using the GraphPad Prism program. […]
In this section we review reported EC50 values for a set of compounds.

>  <mol>
CCc1c(-c2nc(-c3ccccc3F)no2)nnn1-c1ccccc1F

>  <EC50 (nM)>
561

$$$$
>  <mol>
Nc1cc(-c2noc(-c3nnn(-c4ccccc4F)c3-c3ccncc3)n2)ccn1

>  <EC50 (nM)>
78

$$$$
>  <mol>
O=C(O)[C@H]1CC[C@H](NCc2ccc(-c3noc(-c4nnn(-c5ccccc5F)c4-c4ccncc4)n3)cc2)CC1

>  <EC50 (nM)>
16

$$$$
>  <mol>
COCc1c(-c2nc(-c3ccc(CN)cc3)no2)nnn1-c1ccccc1F

>  <EC50 (nM)>
236

$$$$

---

molecular target: S1P1 receptor (Homo sapiens); experiment: 35S-GTPγS binding, membranes from CHO cells expressing S1P1; details: CHO cell membranes expressing S1P1
pEC50: −log10 of the molar value.
readoutKind: pEC50

>  <compound>
COCc1c(-c2nc(-c3cc(F)ccc3F)no2)nnn1-c1ccccc1F [Example 10]

>  <system>
S1P1 receptor (Homo sapiens)

>  <readoutKind>
pEC50

>  <readoutValue>
7.35

$$$$
>  <compound>
CC(C)(C)OC(=O)NCc1ccc(-c2noc(-c3nnn(-c4ccccc4F)c3-c3ccncc3)n2)cc1 [Example 74]

>  <system>
S1P1 receptor (Homo sapiens)

>  <readoutKind>
pEC50

>  <readoutValue>
5.96

$$$$
>  <compound>
O=C(O)[C@H]1CCC[C@H]1NCc1ccc(-c2noc(-c3nnn(-c4ccccc4F)c3-c3ccncc3)n2)cc1 [Example 177]

>  <system>
S1P1 receptor (Homo sapiens)

>  <readoutKind>
pEC50

>  <readoutValue>
6.13

$$$$
>  <compound>
CC(C)c1c(-c2nc(-c3cc(F)ccc3F)no2)nnn1-c1ccccc1F [Example 63]

>  <system>
S1P1 receptor (Homo sapiens)

>  <readoutKind>
pEC50

>  <readoutValue>
6.51

$$$$
>  <compound>
Fc1ccccc1-n1nnc(-c2nc(-c3cccc(C(F)(F)F)c3)no2)c1-c1ccncc1 [Example 103]

>  <system>
S1P1 receptor (Homo sapiens)

>  <readoutKind>
pEC50

>  <readoutValue>
7.77

$$$$
>  <compound>
Fc1ccc(F)c(-c2noc(-c3nnn(-c4ccccc4F)c3C3CCOCC3)n2)c1 [Example 62]

>  <system>
S1P1 receptor (Homo sapiens)

>  <readoutKind>
pEC50

>  <readoutValue>
7.34

$$$$
>  <compound>
COCc1c(-c2nc(-c3ccc(Cn4ccnc4)cc3)no2)nnn1-c1ccccc1F [Example 175]

>  <system>
S1P1 receptor (Homo sapiens)

>  <readoutKind>
pEC50

>  <readoutValue>
7.17

$$$$
>  <compound>
Fc1ccccc1-n1nnc(-c2nc(-c3cccc(CN4CCOCC4)c3)no2)c1-c1ccncc1 [Example 60]

>  <system>
S1P1 receptor (Homo sapiens)

>  <readoutKind>
pEC50

>  <readoutValue>
6.21

$$$$

---

target: S1P3 receptor (Homo sapiens); assay: 35S-GTPγS binding, membranes from CHO cells expressing S1P3; assay type: biochemical; settings: CHO cell membranes expressing S1P3
Sequence (Q99500 whole entry): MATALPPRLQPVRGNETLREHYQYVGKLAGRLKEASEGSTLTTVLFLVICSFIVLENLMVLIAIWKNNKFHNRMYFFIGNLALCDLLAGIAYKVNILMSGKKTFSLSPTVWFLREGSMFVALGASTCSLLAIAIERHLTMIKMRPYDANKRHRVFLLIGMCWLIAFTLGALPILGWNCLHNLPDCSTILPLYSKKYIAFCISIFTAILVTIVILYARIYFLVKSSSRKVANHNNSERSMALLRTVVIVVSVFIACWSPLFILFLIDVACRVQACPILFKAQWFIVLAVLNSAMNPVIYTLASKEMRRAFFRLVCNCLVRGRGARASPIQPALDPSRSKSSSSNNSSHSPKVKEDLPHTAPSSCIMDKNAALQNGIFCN
pEC50: −log10 of the molar value.
In this section we review reported pEC50 values for a set of molecules.

>  <mol>
Fc1ccccc1-c1noc(-c2nnn(-c3ccccc3F)c2-c2ccncc2)n1

>  <resultQualifier>
=

>  <pEC50>
5.92

$$$$
>  <mol>
COCc1c(-c2nc(-c3ccc4[nH]ncc4c3)no2)nnn1-c1ccccc1F

>  <resultQualifier>
<

>  <pEC50>
4.70

$$$$
>  <mol>
COc1ccc(-c2noc(-c3nnn(-c4ccccc4F)c3-c3ccncc3)n2)cc1

>  <resultQualifier>
=

>  <pEC50>
4.98

$$$$
>  <mol>
Fc1ccc(F)c(-c2noc(-c3nnn(-c4ccccc4F)c3CN3CCOCC3)n2)c1

>  <resultQualifier>
=

>  <pEC50>
6.13

$$$$
>  <mol>
CCc1c(-c2nc(-c3ccccc3F)no2)nnn1-c1ccccc1F

>  <resultQualifier>
<

>  <pEC50>
4.52

$$$$

---

In this section we review reported EC50 values for a set of compounds.
biological target: S1P1 receptor (Homo sapiens); test: 35S-GTPγS binding, membranes from CHO cells expressing S1P1; type: biochemical; conditions: CHO cell membranes expressing S1P1

>  <compound>
O=C(O)C1CCN(Cc2ccc(-c3noc(-c4nnn(-c5ccccc5F)c4-c4ccncc4)n3)cc2)CC1 [Example 128]

>  <EC50 (µM)>
0.008

$$$$
>  <compound>
CS(=O)(=O)c1cccc(-c2noc(-c3nnn(-c4ccccc4F)c3-c3ccncc3)n2)c1 [Example 52]

>  <EC50 (µM)>
0.033

$$$$
>  <compound>
Fc1ccccc1-n1nnc(-c2nc(-c3ccc(CN4CCOCC4)cc3)no2)c1-c1ccncc1 [Example 98]

>  <EC50 (µM)>
0.439

$$$$
>  <compound>
Cc1cc(CCC(=O)O)ccc1-c1noc(-c2nnn(-c3ccccc3F)c2-c2ccccc2)n1 [Example 30]

>  <EC50 (µM)>
0.709

$$$$

---

molecular target: S1P1 receptor (Homo sapiens, UniProt P21453); assay: 35S-GTPγS binding, membranes from CHO cells expressing S1P1; details: CHO cell membranes expressing S1P1
pEC50: −log10 of the molar value.
I would appreciate it if you labelled entries yes when pEC50 is 7 or higher, otherwise no.

>  <molecule>
Fc1ccccc1-c1noc(-c2nnn(-c3ccccc3F)c2-c2ccccn2)n1 [Example 27]

>  <system>
S1P1 receptor (Homo sapiens, UniProt P21453)

>  <classLabel>
no

$$$$
>  <molecule>
CC(=O)NC1CCN(Cc2ccc(-c3noc(-c4nnn(-c5ccccc5F)c4-c4ccncc4)n3)cc2)CC1 [Example 137]

>  <system>
S1P1 receptor (Homo sapiens, UniProt P21453)

>  <classLabel>
no

$$$$
>  <molecule>
Cc1ccccc1-c1noc(-c2nnn(-c3ccccc3F)c2-c2ccncc2)n1 [Example 121]

>  <system>
S1P1 receptor (Homo sapiens, UniProt P21453)

>  <classLabel>
yes

$$$$
>  <molecule>
CN(C)Cc1cccc(-c2noc(-c3nnn(-c4ccccc4F)c3-c3ccncc3)n2)c1 [Example 94]

>  <system>
S1P1 receptor (Homo sapiens, UniProt P21453)

>  <classLabel>
no

$$$$
>  <molecule>
Fc1ccccc1-c1noc(-c2nnn(-c3ccccc3F)c2Cc2ccccc2)n1 [Example 58]

>  <system>
S1P1 receptor (Homo sapiens, UniProt P21453)

>  <classLabel>
no

$$$$
>  <molecule>
O=C(O)C1(NCc2ccc(-c3noc(-c4nnn(-c5ccccc5F)c4-c4ccncc4)n3)cc2)CC1 [Example 162]

>  <system>
S1P1 receptor (Homo sapiens, UniProt P21453)

>  <classLabel>
no

$$$$
